molecular target: T1, c-Met (HGF receptor) expressed on cells (human, UniProt P08581 25-1390); test: flow cytometry, antibody titration on SK-O-V3 ovarian cancer cells, PE anti-human IgG
T1 construct: whole, on cells; Endogenous c-Met on tumour cell lines and on human umbilical vein endothelial cells
T1 sequence (P08581 25-1390): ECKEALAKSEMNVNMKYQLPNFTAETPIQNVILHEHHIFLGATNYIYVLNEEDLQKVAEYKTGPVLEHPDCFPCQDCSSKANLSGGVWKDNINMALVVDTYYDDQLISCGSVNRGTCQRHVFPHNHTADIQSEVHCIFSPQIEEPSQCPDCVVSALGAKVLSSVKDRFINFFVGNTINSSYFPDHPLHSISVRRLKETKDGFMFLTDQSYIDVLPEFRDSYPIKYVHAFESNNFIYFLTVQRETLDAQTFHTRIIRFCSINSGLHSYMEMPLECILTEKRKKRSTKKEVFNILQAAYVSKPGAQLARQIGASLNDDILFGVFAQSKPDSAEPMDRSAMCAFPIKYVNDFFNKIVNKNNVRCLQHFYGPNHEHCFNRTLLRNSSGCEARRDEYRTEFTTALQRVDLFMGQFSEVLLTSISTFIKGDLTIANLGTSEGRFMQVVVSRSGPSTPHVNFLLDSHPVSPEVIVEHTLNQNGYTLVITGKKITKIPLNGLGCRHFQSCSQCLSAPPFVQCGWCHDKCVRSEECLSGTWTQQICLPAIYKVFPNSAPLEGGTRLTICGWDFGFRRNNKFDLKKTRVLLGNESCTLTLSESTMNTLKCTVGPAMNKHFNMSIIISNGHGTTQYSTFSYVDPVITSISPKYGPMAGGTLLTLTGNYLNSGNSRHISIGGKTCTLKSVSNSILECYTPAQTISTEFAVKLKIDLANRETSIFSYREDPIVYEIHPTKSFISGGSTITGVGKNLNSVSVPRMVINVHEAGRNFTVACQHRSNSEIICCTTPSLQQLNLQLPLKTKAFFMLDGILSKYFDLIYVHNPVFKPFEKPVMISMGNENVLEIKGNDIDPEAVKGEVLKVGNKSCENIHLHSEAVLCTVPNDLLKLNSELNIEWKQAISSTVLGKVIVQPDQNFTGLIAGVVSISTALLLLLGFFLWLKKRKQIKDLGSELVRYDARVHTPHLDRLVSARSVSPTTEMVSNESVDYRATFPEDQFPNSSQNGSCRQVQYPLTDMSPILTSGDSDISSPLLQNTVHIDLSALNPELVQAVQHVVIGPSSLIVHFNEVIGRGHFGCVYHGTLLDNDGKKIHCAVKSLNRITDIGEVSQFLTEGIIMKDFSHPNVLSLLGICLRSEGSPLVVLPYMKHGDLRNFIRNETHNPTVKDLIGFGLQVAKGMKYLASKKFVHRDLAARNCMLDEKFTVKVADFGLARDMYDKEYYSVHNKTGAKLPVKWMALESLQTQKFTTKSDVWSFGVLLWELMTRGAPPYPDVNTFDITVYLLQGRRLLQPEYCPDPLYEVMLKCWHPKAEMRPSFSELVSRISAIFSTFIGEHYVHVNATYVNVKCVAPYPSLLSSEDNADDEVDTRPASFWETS
ASSAY METRIC: EC50 (nM)
Answer format: numeric, nM implied, no suffix.

El-B13 (E1 derived anti-c-Met antibody) (antibody, V domains shown, Label 'El-B13' matched to 'GCE-B13' by suffix only; Detected with anti-human IgG; also called E1-B13; GCE-B13) VH: QVQLVQSGAEVKKPGASVKVSCKASGSTFSGDYIHWVRQAPGQGLEWMGWINPNSGGTNYAQKFQGRVTMTRDTSISTAYMELSRLRSDDTAVYYCAREPARDYYYYDGLDVWGQGTTVTVSS VL: QSVVTQPPSVSGAPGQRVTISCLGSASNIGAGHDVHWYQQLPGTAPKLLIYGNSNRPSGVPDRFSGSKSGTSASLAITGLQAEDEADYYCQSYSSSLSAVLFGTGTKVTVL: 0.191
El-BR1 (E1 derived anti-c-Met antibody) (antibody, V domains shown, Label 'El-BR1' matched to 'GCE-BR1' by suffix only; Detected with anti-human IgG; also called E1-BR1; GCE-BR1) VH: QVQLVQSGAEVKKPGASVKVSCKASGSTFSGDYLHWVRQAPGQGLEWMGWINPNSGGTNYAQKFQGRVTMTRDTSISTAYMELSRLRSDDTAVYYCAREPARDYYYYDGLDVWGQGTTVTVSS VL: QSVVTQPPSVSGAPGQRVTISCLGSASNIGAGYDVHWYQQLPGTAPKLLIYGNSNRPSGVPDRFSGSKSGTSASLAITGLQAEDEADYYCQSYSSSLSAVLFGTGTKVTVL: 0.467

Switching to the query record.
Sure, the documented EC50 for El-B11 (E1 derived anti-c-Met antibody) (antibody, V domains shown, Label 'El-B11' matched to 'GCE-B11' by suffix only; Detected with anti-human IgG; also called E1-B11; GCE-B11) VH: QVQLVQSGAEVKKPGASVKVSCKASGYTFSGDYIHWVRQAPGQGLEWMGWINPNSGGTNYAQKFQGRVTMTRDTSISTAYMELSRLRSDDTAVYYCAREPARDYYYYDGLDVWGQGTTVTVSS VL: QSVVTQPPSVSGAPGQRVTISCIGSSSNIGAGYDVHWYQQLPGTAPKLLIYGNSNRISGVPDRFSGSKSGTSASLAITGLQAEDEADYYCQSYSSSLSAVLFGTGTKVTVL is 0.41

Source: patent US20190359719A1
